# Test system: KM12 colon
# assay-method-text: NCI tumour cell line growth inhibition, 48 h
Entries and their GI50

COc1cc(-c2nn(-c3cccc(NC(=O)c4ccccc4)c3)cc2-c2ccncc2)ccc1Cl : 0.467 µM
COC(=O)[C@]12CC[C@@H](C)[C@H](C)[C@@H]1C1=CC[C@@H]3[C@@]4(C)C[C@@H](O)[C@H](O)[C@@](C)(CO)[C@@H]4[C@H](O)C[C@@]3(C)[C@]1(C)CC2 : 12.3 µM
Fc1cc(-c2nnc3n2N=C(c2ccc(Cl)cc2)CS3)c(Cl)cc1Cl : 13.1 µM

*Q* Name the reported GI50 value associated with the molecule `O=C(O)C(Cl)Cl`
*A* > 10000 µM

*Q* Try this molecule next: CN(C)CC(O)c1ccc(/C=C/c2ccc(Cl)cc2)cc1 (stereo not given)
*A* 1.66 µM

---

Entries and their TGI
# Tested on: RXF 393 renal
# assay-method-text: NCI tumour cell line growth inhibition, 48 h
Kindly provide the numeric value in µM only, without the unit symbol.

*Q* Which measured TGI belongs to COCCOCOC(CCCCO)c1cc(C)c(O[Si](C)(C)C(C)(C)C)c(C)c1 (stereo not given) , tested on RXF 393 renal?
*A* 10.5

*Q* Try this compound next: `CC(C)(CN1CCCCC1)C(/C=C/c1ccc(Cl)cc1)=N\NC(=O)N/N=C(/C=C/c1ccc(Cl)cc1)C(C)(C)CN1CCCCC1`
*A* 8.24

---

# Tested on: MCF7 breast
# assay-method-text: NCI tumour cell line growth inhibition, 48 h
measured-parameter: TGI

CC(=O)Nc1cc2ccc(=O)oc2cc1Cl : > 100 µM
Cc1ccc(NC2=C3CCCCC3OC2=O)cc1 (centres undefined) : > 100 µM
C=C1C[C@H](O)[C@H](Br)C(C)(C)[C@@]12CCC(C)=C(Cl)C2 : 1.97 µM
O=C(O)C1C2c3ccccc3C(c3ccccc32)C1C(=O)NCC1CC1 (centres undefined) : > 100 µM

*Q* Which measured TGI belongs to CCOC(=O)C12OC(OCC)(CC1(OCC)OCC)C1(CC1)C2=O (centres undefined) , tested on MCF7 breast?
*A* > 100 µM

---

# System: ACHN renal
# assay-method-text: NCI tumour cell line growth inhibition, 48 h
measured-parameter: TGI (µM)
Kindly provide the numeric value in µM only, without the unit symbol.

# example entries with known answers
CCOc1ccc(NC2=CC(=O)C(=O)c3ccccc32)cc1 : 5.74
Cc1[cH-]c(=O)n(-c2ccccc2)n1.[Au+].[Au].c1ccc([PH+](c2ccccc2)c2ccccc2)cc1.c1ccc([PH+](c2ccccc2)c2ccccc2)cc1 : 58.6

Next compound, TGI to be filled in.
*Q* Name the reported TGI value associated with the compound `O=C1CSC(=S)N1/N=C/c1ccc(Cl)c([N+](=O)[O-])c1`
*A* 45.6

---

# Test system: EKVX NSCLC
# assay-method-text: NCI tumour cell line growth inhibition, 48 h
measured-parameter: GI50

# example entries with known answers
C=C1C[C@H](O)[C@H](Br)C(C)(C)[C@@]12CCC(C)=C(Cl)C2 : 0.0371 µM
CCCCCCCCCCSC(=N)N (tested in a mixture with another compound) : 6.89 µM
Fc1cc(-c2nnc3n2N=C(c2ccc(Cl)cc2)CS3)c(Cl)cc1Cl : 23.5 µM

*Q* Which measured GI50 belongs to `c1ccc(-c2n(Cc3ccc4ccccc4n3)cc[n+]2Cc2ccc3ccccc3c2)cc1` , tested on EKVX NSCLC?
*A* 2.33 µM

*Q* Try this molecule next: `COCCn1cc(-c2nc(-c3cc4cccnc4[nH]3)cs2)c2cc(OC)ccc21`
*A* 0.0827 µM
